Data provenance: patent US6720346B2

Tested on: HCT-116 cell line
test_name: Inhibition of cell growth, MTT tetrazolium salt assay
Format: cell-based
run_conditions: HCT-116, at 0.1 μM
measurement_type: HCT-116 % Inhibition at 0.1 μM
Remember to follow the number with its unit.

Some solved cases for reference:
Nc1nc(Nc2ccc(C(=O)NC3CCS(=O)(=O)C3)cc2)sc1C(=O)c1c(F)cccc1F (stereo not shown)	0%
CC(CNC(=O)c1ccc(Nc2nc(N)c(C(=O)c3c(F)cccc3F)s2)cc1)N(C)C (stereo not shown)	85%
CC(NC(=O)c1ccc(Nc2nc(N)c(C(=O)c3c(F)cccc3F)s2)cc1)c1ccccc1 (stereo not shown)	3%

QUERY: If you can, please state the reported HCT-116 % Inhibition at 0.1 μM value of CC(C)NC(=O)c1ccc(Nc2nc(N)c(C(=O)c3c(F)cccc3F)s2)cc1 .
RESULT: 20%

###

assayed_target: CDK2/cyclin A (Homo sapiens, UniProt P24941)
Construct: cyclin A: E. coli
test_name: Inhibition of CDK2/cyclin A retinoblastoma kinase activity (Ki; % inhibition)
run_conditions: apparent Ki, CDK2/cyclin A, Rb substrate
Structures can show the parent of a compound that is named as a salt.
measurement_type: Ki

Completed entries (count: 5):
C[C@H](CN(C)C)NC(=O)c1ccc(Nc2nc(N)c(C(=O)c3ccccc3F)s2)cc1 [Example A66, Trifluoroacetic Acid Salt]	18 nM
Nc1nc(Nc2ccc(C(=O)NCCN3CC=CC3)cc2)sc1C(=O)c1c(F)cccc1F [Example A45, Dihydrochloride Salt]	48 nM
CC(C)OCCNC(=O)c1ccc(Nc2nc(N)c(C(=O)c3c(F)cccc3F)s2)cc1 [Example A7]	61 nM
Nc1nc(Nc2ccc(C(=O)NCc3nccs3)cc2)sc1C(=O)c1c(F)cccc1F [Example A49, Hydrochloride]	260 nM
C[C@@H]1CCC[C@H](C)N1CCNC(=O)c1ccc(Nc2nc(N)c(C(=O)c3c(F)cccc3F)s2)cc1 [Example A51]	110 nM

QUERY: Fill blank: measured Ki of the compound Cn1cnc(CNC(=O)c2ccc(Nc3nc(N)c(C(=O)c4c(F)cccc4F)s3)cc2)c1 [Example A63, Trifluoroacetic Acid Salt] is ____.
RESULT: 15.3 nM

QUERY: Query (compound): Nc1nc(Nc2ccc(C(=O)Nc3ccc(CCO)cc3)cc2)sc1C(=O)c1c(F)cccc1F [Example A24] ; field requested: Ki
RESULT: 100 nM

###

Tested on: HCT-116 cell line
test_name: Inhibition of cell growth, MTT tetrazolium salt assay
Format: cell-based
run_conditions: HCT-116 cells, 0.25 μM compound
Quick rule: HCT-116 % Inhibition at 0.25 μM of at least 60% means rule met, below that means rule not met.

# example entries with known answers
Nc1ccccc1CNC(=O)c1ccc(Nc2nc(N)c(C(=O)c3c(F)cccc3F)s2)cc1	rule met
Nc1nc(Nc2ccc(C(=O)NCCCCc3ccccc3)cc2)sc1C(=O)c1c(F)cccc1F	rule not met

QUERY: Would you say Nc1nc(Nc2ccc(C(=O)NCCc3ccncc3)cc2)sc1C(=O)c1c(F)cccc1F shows HCT-116 % Inhibition at 0.25 μM at minimum 60%?
RESULT: rule met

QUERY: Is reported HCT-116 % Inhibition at 0.25 μM greater than or equal to 60% here: Nc1nc(Nc2ccc(C(=O)NCc3cccc(C(F)(F)F)c3)cc2)sc1C(=O)c1c(F)cccc1F
RESULT: rule not met

QUERY: Hi, just wondering whether Nc1nc(Nc2ccc(C(=O)NCc3ccc(F)c(C(F)(F)F)c3)cc2)sc1C(=O)c1c(F)cccc1F shows HCT-116 % Inhibition at 0.25 μM of 60% or higher.
RESULT: rule met

QUERY: # bool: HCT-116 % Inhibition at 0.25 μM of Cc1cccc(CNC(=O)c2ccc(Nc3nc(N)c(C(=O)c4c(F)cccc4F)s3)cc2)c1C >= 60%
RESULT: rule met

QUERY: API: above_or_equal(metric=HCT-116 % Inhibition at 0.25 μM, cutoff=60%) for item Nc1nc(Nc2ccc(C(=O)NCCc3ccccc3F)cc2)sc1C(=O)c1c(F)cccc1F
RESULT: rule not met

QUERY: Please check the record CC[C@H](NC(=O)c1ccc(Nc2nc(N)c(C(=O)c3c(F)cccc3F)s2)cc1)c1ccccc1 and state if its HCT-116 % Inhibition at 0.25 μM is at or above 60%.
RESULT: rule not met

QUERY: Does HCT-116 % Inhibition at 0.25 μM meet or surpass 60% for Nc1nc(Nc2ccc(C(=O)N3CCC(O)(c4ccccc4)CC3)cc2)sc1C(=O)c1c(F)cccc1F ?
RESULT: rule not met

QUERY: Can Cc1ccc(NC(=O)c2ccc(Nc3nc(N)c(C(=O)c4c(F)cccc4F)s3)cc2)c(F)c1 be said to have HCT-116 % Inhibition at 0.25 μM at or above 60%?
RESULT: rule met

QUERY: Please check the record CN(C)CCCN1CCN(C(=O)c2ccc(Nc3nc(N)c(C(=O)c4c(F)cccc4F)s3)cc2)CC1 and state if its HCT-116 % Inhibition at 0.25 μM is at or above 60%.
RESULT: rule met

QUERY: Hi, just wondering whether Cc1ccc(NC(=O)c2ccc(Nc3nc(N)c(C(=O)c4c(F)cccc4F)s3)cc2)nc1 shows HCT-116 % Inhibition at 0.25 μM of 60% or higher.
RESULT: rule met

QUERY: Is reported HCT-116 % Inhibition at 0.25 μM greater than or equal to 60% here: Nc1nc(Nc2ccc(C(=O)NCc3ccc(Cl)cc3Cl)cc2)sc1C(=O)c1c(F)cccc1F
RESULT: rule met

QUERY: hey, is HCT-116 % Inhibition at 0.25 μM for this one >= 60%? Cc1cccc(CN(C)C(=O)c2ccc(Nc3nc(N)c(C(=O)c4c(F)cccc4F)s3)cc2)n1
RESULT: rule not met

QUERY: Tell me whether HCT-116 % Inhibition at 0.25 μM is at least 60% here: Nc1nc(Nc2ccc(C(=O)NCc3ccc(F)c(F)c3)cc2)sc1C(=O)c1c(F)cccc1F
RESULT: rule met

QUERY: Threshold query (HCT-116 % Inhibition at 0.25 μM >= 60%) on Nc1nc(Nc2ccc(C(=O)N3CCN(CCO)CC3)cc2)sc1C(=O)c1c(F)cccc1F
RESULT: rule not met

QUERY: Record Nc1nc(Nc2ccc(C(=O)Nc3cccc(C(F)(F)F)c3)cc2)sc1C(=O)c1c(F)cccc1F ; criterion: HCT-116 % Inhibition at 0.25 μM no lower than 60%. Met?
RESULT: rule not met

QUERY: Could you verify whether the entry N#CCCNc1ccccc1NC(=O)c1ccc(Nc2nc(N)c(C(=O)c3c(F)cccc3F)s2)cc1 shows HCT-116 % Inhibition at 0.25 μM of no less than 60%?
RESULT: rule met

QUERY: Check this compound for HCT-116 % Inhibition at 0.25 μM at or above 60%: Nc1nc(Nc2ccc(C(=O)N[C@H](CO)CC3CCCCC3)cc2)sc1C(=O)c1c(F)cccc1F
RESULT: rule met
